- TEST DETAILS: amyloid nucleation score (Sup35N fusion, yeast selection) (log enrichment); library NNK2; higher = more nucleation; inactive = no reads after selection;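 further: zero at mode of non-aggregating sequences after 7 days selection at 30°C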
Short version: amyloid nucleation score at least 0.4 is rule met, less is rule not met.

Look over these answered cases.
{"SUBSTANCE": "LVVWPMNQPLPLSNRPTPKR", "CLASS LABEL": "rule met"}
{"SUBSTANCE": "KGGAARSVWISMCFFKAFYR", "CLASS LABEL": "rule not met"}
{"SUBSTANCE": "HKGFEPVGRGYALCSTWLVV", "CLASS LABEL": "rule met"}
{"SUBSTANCE": "NPEDPQSMLLVVGCVEKN", "CLASS LABEL": "rule not met"}
{"SUBSTANCE": "CWRVNRFYVQSSYMGFVWSV", "CLASS LABEL": "rule not met"}
{"SUBSTANCE": "CSYPNTLNCELMGILCYVGN", "CLASS LABEL": "rule met"}

**Q:** Answer whether amyloid nucleation score of `VIKMVMEVPVTGFPRSRNSF` is greater than or equal to 0.4.
**A:** rule not met

**Q:** Answer whether amyloid nucleation score of `MKYLIVCDFCGLYSPCGFCF` is greater than or equal to 0.4.
**A:** rule met

**Q:** Answer whether amyloid nucleation score of `RTVLATYMTPRSTPKSDYPR` is greater than or equal to 0.4.
**A:** rule not met

**Q:** Answer whether amyloid nucleation score of `HHLKGPSQPSIVEIFE` is greater than or equal to 0.4.
**A:** rule not met

**Q:** Answer whether amyloid nucleation score of `LRKPSTIFEHDAKNSRV` is greater than or equal to 0.4.
**A:** rule not met

**Q:** Answer whether amyloid nucleation score of `TVSSIKFVVYSGLRWYELVY` is greater than or equal to 0.4.
**A:** rule met

**Q:** Answer whether amyloid nucleation score of `TQSWDEWSYGNITGSTSYRL` is greater than or equal to 0.4.
**A:** rule not met

**Q:** Answer whether amyloid nucleation score of `SYTCSS` is greater than or equal to 0.4.
**A:** rule not met

**Q:** Answer whether amyloid nucleation score of `GGVIVQYLPFSNYLRKQGSL` is greater than or equal to 0.4.
**A:** rule not met

**Q:** Answer whether amyloid nucleation score of `LTGLFAGLKGKCLFTVNRGI` is greater than or equal to 0.4.
**A:** rule not met

**Q:** Answer whether amyloid nucleation score of `NLSYDHPACCKWNRCYVKHR` is greater than or equal to 0.4.
**A:** rule met

**Q:** Answer whether amyloid nucleation score of `HWMVGKV` is greater than or equal to 0.4.
**A:** rule not met

**Q:** Answer whether amyloid nucleation score of `FIDIKSICCRHMNDWHCLSE` is greater than or equal to 0.4.
**A:** rule not met

**Q:** Answer whether amyloid nucleation score of `GEGHWNYLLASFCNHGMCYF` is greater than or equal to 0.4.
**A:** rule met

**Q:** Answer whether amyloid nucleation score of `FNSLILQIIVVRV` is greater than or equal to 0.4.
**A:** rule met

**Q:** Answer whether amyloid nucleation score of `FVDRTCLVRSMLRVLPITGG` is greater than or equal to 0.4.
**A:** rule not met

**Q:** Answer whether amyloid nucleation score of `TYLLLWSCGWLSWRVICALR` is greater than or equal to 0.4.
**A:** rule met
